System: L1210
experimental-details: Tested for inhibitory activity against murine cell line […] leukemia, a strain resistant to doxorubicin using MTT assay.
Assay type: functional, cell-based
test-conditions: Mus musculus
measured-property: IC50 (µM)
// return numeric value only (unit: µM, not printed)

Query: State its IC50 on L1210: "CN(C)CCN1C(=O)c2cccc3c2c(cc2ncccc23)C1=O"
Result: 0.367

---

Test system: L1210
experimental-details: Tested for inhibitory activity against murine cell line […], a strain sensitive to doxorubicin using MTT assay.
Type: functional, cell-based
test-conditions: Mus musculus
I'd be grateful if you could share measured pIC50 for these entries.
In plain terms, pIC50 is the concentration in mol/L turned into minus its base-10 logarithm.

Query: Quick check: pIC50 of "CC(=O)Nc1ccc2cc3c(c4c2c1C(=O)N(CCN(C)C)C4=O)CCCC3" ?
Result: 7.22

Query: Param item: "CN(C)CCN1C(=O)c2cccc3c2c(cc2c(N)cccc23)C1=O"
Result: 7.27

Query: Param item: O=C1c2c(O)ccc(O)c2C(=O)c2c(NCCNCCO)ccc(NCCNCCO)c21 [MITOXANTRONE]
Result: 8.00

Query: Param item: "CN(C)CCN1C(=O)c2cccc3c2c(cc2c([N+](=O)[O-])cccc23)C1=O"
Result: 7.30

Query: Param item: "CN(C)CCN1C(=O)c2cc3cccnc3c3ccc(N)c(c23)C1=O"
Result: 6.63

Query: Param item: "CN(C)CCN1C(=O)c2cccc3c2c(cc2cccc(N)c23)C1=O"
Result: 7.27

Query: Param item: "CN(C)CCN1C(=O)c2cccc3c2c(cc2cccc(Cl)c23)C1=O"
Result: 6.59

Query: Param item: "CN(C)CCN1C(=O)c2c(N)ccc3cc4c(c(c23)C1=O)CCCC4"
Result: 7.96

Query: Param item: "CN(C)CCN1C(=O)c2cccc3c2c(cc2ccccc23)C1=O"
Result: 6.71

Query: Param item: "CN(C)CCN1C(=O)c2cccc3c2c(cc2c(Cl)cccc23)C1=O"
Result: 6.11

---

I'd be grateful if you could share measured pIC50 for these entries.
System: MCF7
experimental-details: Tested for inhibitory activity against human tumor cell line MCF7, a strain sensitive to doxorubicin of breast carcinoma using sulforhodamine B assay.
Format: functional, cell-based
In plain terms, pIC50 is the concentration in mol/L turned into minus its base-10 logarithm.

Query: State its pIC50 on MCF7: "CN(C)CCN1C(=O)c2cccc3c2c(cc2cccnc23)C1=O"
Result: 6.68

Query: Param item: "CN(C)CCN1C(=O)c2cccc3c2c(cc2cccc(N)c23)C1=O"
Result: 6.89

Query: Param item: "CN(C)CCN1C(=O)c2c(NC(=O)C(C)(C)C)ccc3cc4c(c(c23)C1=O)CCCC4"
Result: 6.02

Query: Param item: "CN(C)CCN1C(=O)c2cccc3c2c(cc2cccc([N+](=O)[O-])c23)C1=O"
Result: 6.44

Query: Param item: "CN(C)CCN1C(=O)c2cccc3c2c(cc2cccc(Cl)c23)C1=O"
Result: 6.80

Query: Param item: "O=C1c2c(O)ccc(O)c2C(=O)c2c(NCCNCCO)ccc(NCCNCCO)c21"
Result: 8.05

Query: Param item: "CN(C)CCN1C(=O)c2cccc3c2c(cc2ncccc23)C1=O"
Result: 6.77

Query: Param item: "CN(C)CCN1C(=O)c2cc(N)cc3cc4c(c(c23)C1=O)CCCC4"
Result: 6.62

Query: Param item: "CN(C)CCN1C(=O)c2cccc3c2c(cc2ccccc23)C1=O"
Result: 6.66

Query: Param item: "CN(C)CCN1C(=O)c2cc(NC(=O)C(C)(C)C)cc3cc4c(c(c23)C1=O)CCCC4"
Result: 5.77

Query: Param item: "CN(C)CCN1C(=O)c2cccc3c2c(cc2c(N)cccc23)C1=O"
Result: 6.26
